experiment: Cmax in rat brain; assay type: ADME, organism-based
measurement_type: Cmax (µM)

chem_smiles=Nc1nc(-c2ccccc2)c2c(n1)-c1cc(OCCN3CCOCC3)ccc1C2=O quantity_unit=µM observed=4.1

A. CN1CCN(C(=O)c2ccc3c(c2)-c2nc(N)nc(-c4ccccc4)c2C3=O)CC1
B. Nc1nc(-c2ccccc2)c2c(n1)-c1cc(CN3CCCC3)ccc1C2=O
Exercise: Dear colleague, could you let me know whether A or B has the lower recorded Cmax? Thanks. Pick one; state its label.
Key: A
(A: 0.6 µM, B: 3.6 µM)

----------
target: Adenosine receptor A2a (Homo sapiens); experiment: Antagonistic activity at adenosine A2A receptor
Sequence (P29274 whole entry): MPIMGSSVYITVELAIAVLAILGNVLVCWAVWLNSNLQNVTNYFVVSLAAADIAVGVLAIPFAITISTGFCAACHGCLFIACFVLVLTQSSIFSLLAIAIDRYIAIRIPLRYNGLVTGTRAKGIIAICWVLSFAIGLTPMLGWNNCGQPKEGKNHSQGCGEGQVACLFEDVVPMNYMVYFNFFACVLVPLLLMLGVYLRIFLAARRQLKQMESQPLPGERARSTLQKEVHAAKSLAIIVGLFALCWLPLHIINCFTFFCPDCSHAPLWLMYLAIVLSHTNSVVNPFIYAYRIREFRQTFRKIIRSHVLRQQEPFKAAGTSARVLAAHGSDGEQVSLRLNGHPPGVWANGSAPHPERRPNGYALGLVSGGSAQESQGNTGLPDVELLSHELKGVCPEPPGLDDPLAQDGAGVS
pKi: −log10 of the molar value.
measurement_type: pKi

chem_smiles=Nc1nc(-c2ccccc2)c2c(n1)-c1cc(NCCN3CCS(=O)(=O)CC3)ccc1C2=O observed=8.51
chem_smiles=CN1CCN(C(=O)c2ccc3c(c2)-c2nc(N)nc(-c4ccc(F)cc4)c2C3=O)CC1 observed=7.95
chem_smiles=CCN(CC)CCNC(=O)c1ccc2c(c1)-c1nc(N)nc(-c3ccccc3)c1C2=O observed=7.87

a. CCN1CCN(C(=O)c2ccc3c(c2)-c2nc(N)nc(-c4ccccc4)c2C3=O)CC1
b. Nc1nc(-c2ccc(F)cc2)c2c(n1)-c1cc(OCCN3C4CCC3CC4)ccc1C2=O
Exercise: Between these two entries, a and b , state which has the higher pKi. Pick one; state its label.
Key: a
(a: 7.83, b: 7.45)

1. CN(C)CCOc1ccc2c(c1)-c1nc(N)nc(-c3ccccc3)c1C2=O
2. CN(C)CCN(C)c1ccc2c(c1)-c1nc(N)nc(-c3ccccc3)c1C2=O
Exercise: Dear colleague, could you let me know whether 1 or 2 has the lower recorded pKi? Thanks. Pick one; state its label.
Key: 1
(1: 7.76, 2: 8.33)

----------
biological target: UniProt:P29274; assay: Antagonistic activity at adenosine A2A receptor
measurement_type: Ki (µM)

Worked cases, answers included:
chem_smiles=CC(C)N(CCOc1ccc2c(c1)-c1nc(N)nc(-c3ccccc3)c1C2=O)C(C)C observed=0.0137
chem_smiles=CCN(CC)CCOc1ccc2c(c1)-c1nc(N)nc(-c3ccccc3)c1C2=O observed=0.0079

1. CN(C)CCN(C)C(=O)c1ccc2c(c1)-c1nc(N)nc(-c3ccccc3)c1C2=O
2. Nc1nc(-c2ccc(F)cc2)c2c(n1)-c1cc(OCCN3CCCC3)ccc1C2=O
Exercise: Dear colleague, could you let me know whether 1 or 2 has the lower recorded Ki? Thanks. Pick one; state its label.
Key: 1
(1: 0.0124 µM, 2: 0.117 µM)

1. CC(C)N(CCOc1ccc2c(c1)-c1nc(N)nc(-c3ccc(F)cc3)c1C2=O)C(C)C
2. CCN1CCC(Nc2ccc3c(c2)-c2nc(N)nc(-c4ccccc4)c2C3=O)CC1
Exercise: Dear colleague, could you let me know whether 1 or 2 has the lower recorded Ki? Thanks. Pick one; state its label.
Key: 2

1. CCN1CCN(c2ccc3c(c2)-c2nc(N)nc(-c4ccccc4)c2C3=O)CC1
2. CN(C)CCOc1ccc2c(c1)-c1nc(N)nc(-c3ccc(F)cc3)c1C2=O
3. CN1CCC(N(C)C(=O)c2ccc3c(c2)-c2nc(N)nc(-c4ccccc4)c2C3=O)CC1
4. CCN(CC)CCN(C)C(=O)c1ccc2c(c1)-c1nc(N)nc(-c3ccccc3)c1C2=O
Exercise: Which order do these items take when sorted by rising Ki? List them. Give the order by naming the labels one after another as requested.
Key: 4, 1, 3, 2
(4: 0.0078 µM, 1: 0.0114 µM, 3: 0.0186 µM, 2: 0.0373 µM)
